# TARGET OF ASSAY: shFcRn (human, UniProt P55899)
# Sequence (P55899 24-297, chain 1 of 2): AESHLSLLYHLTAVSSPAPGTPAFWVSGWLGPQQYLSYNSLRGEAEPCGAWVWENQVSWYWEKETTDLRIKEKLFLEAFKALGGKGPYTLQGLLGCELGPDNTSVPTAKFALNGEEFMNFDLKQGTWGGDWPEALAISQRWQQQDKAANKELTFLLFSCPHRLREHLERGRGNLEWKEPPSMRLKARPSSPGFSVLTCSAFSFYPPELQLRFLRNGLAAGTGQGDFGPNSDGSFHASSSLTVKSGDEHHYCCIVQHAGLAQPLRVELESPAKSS
# Sequence (chain, as listed by the source, chain 2 of 2): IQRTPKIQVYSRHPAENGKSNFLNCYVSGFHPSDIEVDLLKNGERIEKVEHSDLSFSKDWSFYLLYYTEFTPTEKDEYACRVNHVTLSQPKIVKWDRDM
# METHOD DESCRIPTION: SPR pH 6.0
MEASURED PARAMETER: koff (s⁻¹)
Dear colleague, please return just the value in s⁻¹, with no unit written.

BINDER	VALUE OBSERVED
A12-C09 (antibody) chain 1: EVQLVESGGGLVQPGRSLRLSCAASGFTFDEYGMHWVRQAPGKGLEWVSGVSWNSGSIAYADSVRGRFTISRDNAKNSLYLQMNSLRAEDTALYYCAKGRTMDVWGQGTTVTVSS chain 2: QSALTQPASVSGSPGQSITISCTGSSSDVGGYNYVSWYQQHPGKAPKLMIYDVTKRPSGVSNRFSGSKSGNTASLTISGLQAEDEADYYGSYSSNTFYVFGTGTKVTVL	0.000177
A11-C07 (antibody) chain 1: EVQLVESGGGLVQPGRSLRLSCAASGFTFDEYGMHWVRQAPGKGLEWVSGVSWNSGSIAYADSVRGRFTISRDNAKNSLYLQMNSLRAEDTALYYCAKGRYSDVWGQGTTVTVSS chain 2: QSALTQPASVSGSPGQSITISCTGSSSDVGGYNYVSWYQQHPGKAPKLMIYDVTKRPSGVSNRFSGSKSGNTASLTISGLQAEDEADYYASYSSNTFYVFGTGTKVTVL	0.000393

Fill blank: measured koff of the binder A12-E04 (antibody) chain 1: EVQLVESGGGLVQPGRSLRLSCAASGFTFDEYGMHWVRQAPGKGLEWVSGVSWNSGSIAYADSVRGRFTISRDNAKNSLYLQMNSLRAEDTALYYCAKGRLFDVWGQGTTVTVSS chain 2: QSALTQPASVSGSPGQSITISCTGSSSDVGGYNYVSWYQQHPGKAPKLMIYDVTKRPSGVSNRFSGSKSGNTASLTISGLQAEDEADYYGSYSNSNFYVFGTGTKVTVL is ____.
0.000132

Fill blank: measured koff of the binder A12-E05 (antibody) chain 1: EVQLVESGGGLVQPGRSLRLSCAASGFTFDEYGMHWVRQAPGKGLEWVSGVSWNSGSIAYADSVRGRFTISRDNAKNSLYLQMNSLRAEDTALYYCAKGRILDVWGQGTTVTVSS chain 2: QSALTQPASVSGSPGQSITISCTGSSSDVGGYNYVSWYQQHPGKAPKLMIYDVTKRPSGVSNRFSGSKSGNTASLTISGLQAEDEADYYGSYNNSTFYVFGTGTKVTVL is ____.
0.000216

Fill blank: measured koff of the binder A12-E01 (antibody) chain 1: EVQLVESGGGLVQPGRSLRLSCAASGFTFDEYGMHWVRQAPGKGLEWVSGVSWNSGSIAYADSVRGRFTISRDNAKNSLYLQMNSLRAEDTALYYCAKSRSMDVWGQGTTVTVSS chain 2: QSALTQPASVSGSPGQSITISCTGSSSDVGGYNYVSWYQQHPGKAPKLMIYDVTKRPSGVSNRFSGSKSGNTASLTISGLQAEDEADYYGSYSNNNFYVFGTGTKVTVL is ____.
5.99e-05
